System: TYRO3 (Homo sapiens, UniProt Q06418) | Read-out: pIC50 | Origin: multiple publications
pIC50: −log10 of the molar value.

Record summary for CC(C)n1cc(C(=O)Nc2ccc(-c3cc(CN4CCOCC4)n4ncnc(N)c34)cc2)c(=O)n(-c2ccccc2)c1=O : reported pIC50 = < 7.00

Note to self: pIC50 recorded for COC[C@H](C)Nc1ncc2c(-c3ccnc(N4CCc5nc(C)sc5C4)c3)cc([C@H]3CC[C@H](O)CC3)n2n1 was ≥ 7.00

Entry COC[C@H](C)Nc1ncc2c(-c3ccnc(N4CCN(S(=O)(=O)C5CC5)CC4)c3)cc([C@H]3CC[C@H](O)CC3)n2n1 ; pIC50 = ≥ 7.00

Documented pIC50 of CCCC(C)Nc1ncc2c(OC3CCC(OC)CC3)ncc([C@H]3CC[C@H](O)CC3)c2n1 (stereo partly shown) : ≥ 7.00

----------
pIC50: −log10 of the molar value.
TYRO3 (Homo sapiens) pIC50, compiled from various sources.

Below, each entry is followed by its recorded pIC50 result.
CCCC(C)Nc1ncc2c(OC[C@H]3CC[C@H](O)CC3)ncc([C@H]3CC[C@H](O)CC3)c2n1 (stereo partly shown); ≥ 7.00
COC[C@H](C)Nc1ncc2c(-c3cnn(C(C)(C)C(=O)N4CCC(C)(O)C4)c3)cc([C@H]3CC[C@H](O)CC3)n2n1 (stereo partly shown); ≥ 7.00
Cc1nn(C)c(C)c1-c1cc(-c2ccc(NC(=O)c3cn(C(C)C)c(=O)n(-c4cccc(F)c4)c3=O)cc2)c2c(N)ncnn12; < 7.00
COC[C@H](C)Nc1ncc2c(C(F)(F)F)ncc([C@H]3CC[C@H](O)CC3)c2n1; 5.00 to 6.00

// pIC50 (TYRO3 (Homo sapiens)) for CCCCNc1ncc2c3ccc(CNC4CCCCC4)cc3c(=O)n([C@H]3CC[C@H](O)CC3)c2n1 = > 7.00

TYRO3 (Homo sapiens) assay, compound O[C@H]1CC[C@H](c2cnc(OC3CCNCC3)c3cnc(Nc4ccccc4F)nc32)CC1 , recorded pIC50 = ≥ 7.00

So the reported pIC50 for CNS(=O)(=O)c1ccc(-c2cc([C@H]3CC[C@H](O)CC3)n3nc(N[C@@H](C)COC)ncc23)cn1 , on TYRO3 (Homo sapiens), turned out to be ≥ 7.00

----------
Below, IC50 values reported for TYRO3 (Homo sapiens, UniProt Q06418) across several publications.

Some entries whose results are on file:
COC[C@H](C)Nc1ncc2c(OC3CCOCC3)ncc(-c3ccc(O)cc3)c2n1; 0.1 to 1 µM
Cc1cc(-c2cc([C@H]3CC[C@H](O)CC3)n3nc(N[C@@H](C)CC(F)(F)F)ncc23)ccn1; ≤ 0.1 µM
COC[C@H](C)Nc1ncc2c(-c3cnn(C[C@@H]4CC(=O)N(C)C4)c3)cc([C@H]3CC[C@H](O)CC3)n2n1; ≤ 0.1 µM
Cc1c(Cl)cc(C(=O)Nc2ccc(-c3cc(C4CCN(C(=O)C(C)C)CC4)n4ncnc(N)c34)cc2)c(=O)n1-c1ccccn1; > 0.1 µM
COC[C@H](C)Nc1ncc2c([C@H]3CC[C@H](C(=O)N4CC5(COC5)C4)CC3)cc([C@H]3CC[C@H](O)CC3)n2n1; ≤ 0.1 µM
C[C@@H](COC(F)F)Nc1ncc2c(-c3cnn(C(C)(C)C(=O)N4CC5(COC5)C4)c3)cc([C@H]3CC[C@H](O)CC3)n2n1; ≤ 0.1 µM

TYRO3 (Homo sapiens, UniProt Q06418) IC50 of C[C@@H](CC(F)(F)F)Nc1ncc2c(-c3cnn([C@@H]4CCOC4)c3)cc([C@H]3CC[C@H](O)CC3)n2n1 is ≤ 0.1 µM

----------
Study the reported pIC50 values for UniProtKB Q06418 given below; they originate from different publications.
pIC50: −log10 of the molar value.

Here's what some known entries look like.
COc1cc2nccc(Oc3ccc(NC(=O)c4cc(-c5ccc(C)cc5)cn(CC5CCOCC5)c4=O)nc3)c2cc1OC; 7.03
COC[C@H](C)Nc1ncc2c(-c3ccnc(N4CCS(=O)(=O)CC4)c3)cc([C@H]3CC[C@H](O)CC3)n2n1; ≥ 7.00
Cc1c(-c2cccc(C#N)c2)c(=O)c(C(=O)Nc2ccc(-c3cc(C4CCN(C(=O)C(C)C)CC4)n4ncnc(N)c34)cc2)cn1C(C)C; 7.00 to 8.00
CC(C)C(=O)N1CCC(c2cc(-c3ccc(NC(=O)c4cc(C5CC5)nn(-c5ccccc5)c4=O)cc3)c3c(N)ncnn23)CC1; < 7.00
CC[C@H](C)Nc1ncc2c(N3CC[C@@H](N(C)C)C3)ncc([C@H]3CC[C@H](O)CC3)c2n1; ≥ 7.00
Cc1cc2c(cc1-c1cnc3[nH]nc(-c4ccc(C(C)(C)O)c(Cl)c4)c3c1)CCC(N1CCC[C@H]1C)CC2 (stereo partly shown); < 6.00

Data point: C[C@@H]1CCCN1[C@H]1CCc2cc(-c3cnc4[nH]nc(-c5ccc(S(=O)(=O)C6CC6)cc5)c4c3)cnc2CC1 ; pIC50 = < 6.00

----------
pIC50: −log10 of the molar value.
Published pIC50 for TYRO3 (Homo sapiens), assembled from different documents, is shown next.

The following molecules have reported results that may help.
O[C@H]1CC[C@H](c2cnc(OC3CCNCC3)c3cnc(N[C@@H]4CCCOC4)nc32)CC1; 6.00 to 7.00
NCC1(c2cccc(-c3ncnc4[nH]ccc34)c2)Cc2ccncc2C1 (centres unmarked); 5.52 to 6.00
NC(=O)c1ccc(-c2n[nH]c3ncc(-c4ccc5c(c4)CCC(N4CCCC4)CC5)cc23)cc1C(F)(F)F (centres unmarked); > 7.00
COC[C@H](C)Nc1ncc2c(-c3ccnc(OC4CCN(C)CC4)c3)cc([C@H]3CC[C@H](O)CC3)n2n1; ≥ 7.00
CCc1cccc(Nc2ncc3c(OC4CCNCC4)ncc([C@H]4CC[C@H](O)CC4)c3n2)c1; 6.00 to 7.00
CCC[C@H](C)Nc1ncc2c(OC3CCN(C)CC3)ncc([C@H]3CC[C@H](O)CC3)c2n1; 6.00 to 7.00

Form field pIC50 for item CC[C@H](C)Nc1ncc2c(NC3CCOCC3)ncc([C@H]3CC[C@H](O)CC3)c2n1 on TYRO3 (Homo sapiens): ≥ 7.00

Given the molecule CC(=O)N1CCC(c2cc(-c3ccc(NC(=O)c4cccn(-c5ccc(F)cc5)c4=O)cc3)c3c(N)ncnn23)CC1 and test system TYRO3 (Homo sapiens), the measured pIC50 is 7.00 to 8.00

Item: COc1cc2nccc(Oc3ccc(NC(=O)c4cn(C5CCOCC5)cc(-c5ccc(C)cc5)c4=O)nc3)c2cc1OC | System: TYRO3 (Homo sapiens) | pIC50: 7.47

pIC50 value, target or system TYRO3 (Homo sapiens), for CC(C)C(=O)N1CCC(c2cc(-c3ccc(NC(=O)c4cc5c(n(-c6ccccc6)c4=O)CCCC5=O)cc3)c3c(N)ncnn23)CC1 : 7.00 to 8.00

Item COC[C@H](C)Nc1ncc2c(-c3cnn(C4COC4)c3)cc([C@H]3CC[C@](O)(C(C)C)CC3)n2n1 was tested on TYRO3 (Homo sapiens); the reported pIC50 is ≥ 7.00

----------
Collected literature values of IC50 measured for TYRO3 (Homo sapiens).

CC[C@H](C)Nc1ncc2c(=O)n([C@H]3CC[C@H](N)CC3)cc([C@H]3CC[C@H](O)CC3)c2n1; ≤ 100 nM
COC[C@H](C)Nc1ncc2c(-c3cnn(C(C)(C)c4nnc(C)s4)c3)cc([C@H]3CC[C@H](O)CC3)n2n1; ≤ 100 nM
C[C@@H]1CCCN1C1(C)CCc2ccc(-c3cnc4[nH]nc(-c5ccc(S(=O)(=O)C6CC6)c(F)c5)c4c3)cc2CC1 (stereo partly drawn); < 100 nM
COC[C@H](C)Nc1ncc2c(-c3cnn(C(C)(C)C(=O)N4CCCC5(COC5)C4)c3)cc([C@H]3CC[C@H](O)CC3)n2n1; ≤ 100 nM
CC(C)(C)S(=O)(=O)c1ccc(-c2n[nH]c3ncc(-c4ccc5c(c4)CC[C@@H](N4C6COCC4C6)CC5)cc23)cc1; 100 to 1000 nM

Moving on to the next compound.
Data point: CC(Nc1ncc2c(-c3ccc(CN4CCN(C)CC4)cc3)cc([C@H]3CC[C@H](O)CC3)n2n1)C(F)F (mixture of isomers) ; IC50 = ≤ 100 nM

----------
pIC50: −log10 of the molar value.
Here we gather pIC50 data for TYRO3 (Homo sapiens, UniProt Q06418) reported by several publications.

CNC(=O)c1ccc(-c2cc([C@H]3CC[C@H](O)CC3)n3nc(N[C@@H](C)COC)ncc23)cn1; ≥ 7.00

So, COC[C@H](C)Nc1ncc2c(-c3cnn(C4CN(CCC(F)(F)F)C4)c3)cc([C@H]3CC[C@H](O)CC3)n2n1 ? Its pIC50 was ≥ 7.00

Recorded result, COC[C@H](C)Nc1ncc2c(-c3cnc(C)o3)cc([C@H]3CC[C@H](O)CC3)n2n1 , pIC50: ≥ 7.00

Briefly, pIC50 measured for COCC(C)Nc1ncc2c(-c3ccc(C(C)(C)c4nnc(C)o4)s3)cc(C3CCC(O)CC3)n2n1 (stereo not shown) : ≥ 7.00

Just so you know, measured pIC50 for COC[C@H](C)Nc1ncc2c(OC3CC(C)(C)N(C(C)=O)C(C)(C)C3)ncc([C@H]3CC[C@H](O)CC3)c2n1 came out at 6.00 to 7.00

// sample CC1(Nc2ncc3c(OC4CCOCC4)ncc(-c4cccc(S(=O)(=O)N5CCC5)c4)c3n2)CC1 , its pIC50 was 6.00 to 7.00

Entry CC(=O)N[C@H]1C[C@@H](Oc2ncc([C@H]3CC[C@H](O)CC3)c3nc(N[C@@H](C)CC(F)(F)F)ncc23)C1 , pIC50 reported as ≥ 7.00

pIC50 reading for CCCCC[C@H](C)Nc1ncc2c(-c3ccc(S(=O)(=O)N4CCOCC4)cc3)cc([C@H]3CC[C@@H](O)CC3)n2n1 : 6.00 to 7.00

Field pIC50 (entry Cc1c(-c2ccn(C)n2)cc(C(=O)Nc2ccc(-c3cc(C4CCN(C(=O)C(C)C)CC4)n4ncnc(N)c34)cc2)c(=O)n1-c1cccnc1 ) reads < 7.00

For reference, reported pIC50 for COC[C@H](C)Nc1ncc2c(-c3conc3C)cc([C@H]3CC[C@H](O)CC3)n2n1 stands at ≥ 7.00

Query Cc1c(C(F)F)cc(C(=O)Nc2ccc(-c3cc(C4CCN(C(=O)C(C)C)CC4)n4ncnc(N)c34)cc2)c(=O)n1-c1ccccn1 yields pIC50 of < 7.00

The value of pIC50 measured for the compound COC[C@H](C)Nc1ncc2c(-c3cnn(Cc4cn[nH]c4)c3)cc([C@H]3CC[C@H](O)CC3)n2n1 turned out to be ≥ 7.00

// pIC50 value for COC[C@H](C)Nc1ncc2c(-c3cnn(C(C)(C)C(=O)N4CCCC(C)(O)C4)c3)cc([C@H]3CC[C@H](O)CC3)n2n1 (stereo partly shown) : ≥ 7.00
